Could you please report measured z-score for the items listed next?
assay: change in splice reporter luminescence, either direction, cell-based, HEK293, spliceosome inhibition project, primary screen (AID 1101); conditions: HEK293 splicing luciferase reporter, 24 h, higher = more signal, called active from +8 up or from −8 down;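 further: HEK293 cells carrying a splicing-competent luciferase reporter gene; test concentration not given here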
# answer = number (no unit)

Briefly, z-score measured for CC(C)C(=C=CC[C@H](O)c1ccccc1OCCO)C[C@H](O)COCc1ccccc1 : -0.114

Briefly, z-score measured for CC(C)=CCCC=C(C)C(O)C1C=CC2C(=O)N(c3ccccc3)C(=O)C2N1Nc1ccc(C#N)cc1 (configuration not stated) : -0.403

Briefly, z-score measured for COC(=O)[C@@]1(Cc2ccc(OC)cc2)[C@H]2c3cc(C(=O)N4CCCC4)n(Cc4c(CO)[nH]cc(C)c4=O)c3C[C@H]2CN1C(=O)c1ccccc1 : -1.14

Briefly, z-score measured for C=C(CCCC)/C(=C/C[C@H](OC(C)=O)c1cccc(OCCO)c1)c1cnc2ccccc2c1 : -0.142

Briefly, z-score measured for CN(C)CCCNC(=O)[C@@]1(Cc2ccccc2I)c2ccccc2C(=O)N(C2CCCCC2)[C@H]1c1ccc(CO)cc1 : -4.61

Briefly, z-score measured for O=C1C[C@]2(c3ccc([N+](=O)[O-])cc3)C(=O)N(C3CC3)c3cc(CO)ccc3[C@H]2N1C1CCCCC1 : -0.282

Briefly, z-score measured for C[C@@H]1NC(=O)C([C@@H](C)OCc2ccccc2)NC(=O)[C@@]23C(=O)N[C@@H](Cc4ccccc4)C2[C@H](C)[C@@]2(C)O[C@H]2C3/C=C/C/C=C\CNC1=O (some centres not stated) : 0.531
